Each recorded value in this set is attributed to the NIST ThermoML archive (doi:10.1021/je300692s).

# Assay notes: activity coefficient (dimensionless); of the first substance listed, at infinite dilution; xn = mol fraction of the nth substance listed
# Condition details: 322.6 K; 101 kPa; Liquid; Chromatography; x1 = 0
Readout label: activity coefficient
In your answer, state the number alone without any accompanying words.

# annotated cases, reported activity coefficient shown
Compound	Reported measurement
C#CCCCCC [1-heptyne] + CCCCCCCCCC[N+]1(C)CCCC1.O=S(=O)([N-]S(=O)(=O)C(F)(F)F)C(F)(F)F	1.81
CC1CCCCC1 [methylcyclohexane] + CCCCCCCCCC[N+]1(C)CCCC1.O=S(=O)([N-]S(=O)(=O)C(F)(F)F)C(F)(F)F	3.38
CCCC(C)=O [pentan-2-one] + CCCCCCCCCC[N+]1(C)CCCC1.O=S(=O)([N-]S(=O)(=O)C(F)(F)F)C(F)(F)F	0.52
CCCCCCCCCCC [undecane] + CCCCCCCCCC[N+]1(C)CCCC1.O=S(=O)([N-]S(=O)(=O)C(F)(F)F)C(F)(F)F	11.7
CCC(C)CC [3-methylpentane] + CCCCCCCCCC[N+]1(C)CCCC1.O=S(=O)([N-]S(=O)(=O)C(F)(F)F)C(F)(F)F	3.65

**Query** Consider the compound CCCCO [butan-1-ol] + CCCCCCCCCC[N+]1(C)CCCC1.O=S(=O)([N-]S(=O)(=O)C(F)(F)F)C(F)(F)F and give its measured activity coefficient.
**Result** 2.2

**Query** Continue with ClC(Cl)(Cl)Cl [tetrachloromethane] + CCCCCCCCCC[N+]1(C)CCCC1.O=S(=O)([N-]S(=O)(=O)C(F)(F)F)C(F)(F)F
**Result** 1.32

**Query** Continue with C1CCCCC1 [cyclohexane] + CCCCCCCCCC[N+]1(C)CCCC1.O=S(=O)([N-]S(=O)(=O)C(F)(F)F)C(F)(F)F
**Result** 2.81

**Query** Continue with c1ccccc1 [benzene] + CCCCCCCCCC[N+]1(C)CCCC1.O=S(=O)([N-]S(=O)(=O)C(F)(F)F)C(F)(F)F
**Result** 0.62

* * *

# Assay notes: activity coefficient (dimensionless); of the first substance listed, at infinite dilution; xn = mol fraction of the nth substance listed
# Condition details: 323 K; 101 kPa; Liquid; Chromatography; x1 = 0
Readout label: activity coefficient
In your answer, state the number alone without any accompanying words.

Compound	activity coefficient
Cc1ccccc1 [toluene] + CCCCCCCC[N+]1(C)CCCC1.O=S(=O)([N-]S(=O)(=O)C(F)(F)F)C(F)(F)F	0.76
C1COCCO1 [1,4-dioxane] + CCCCCCCC[N+]1(C)CCCC1.O=S(=O)([N-]S(=O)(=O)C(F)(F)F)C(F)(F)F	0.32

Query compound follows.
**Query** Consider the compound ClC(Cl)Cl [trichloromethane] + CCCCCCCC[N+]1(C)CCCC1.O=S(=O)([N-]S(=O)(=O)C(F)(F)F)C(F)(F)F and give its measured activity coefficient.
**Result** 0.56

* * *

# Assay notes: activity coefficient (dimensionless); of the first substance listed, at infinite dilution; xn = mol fraction of the nth substance listed
# Condition details: 332.5 K; 101 kPa; Liquid; Chromatography; x1 = 0
Readout label: activity coefficient
In your answer, state the number alone without any accompanying words.

Compound	activity coefficient
CCC[N+](=O)[O-] [1-nitropropane] + CCCCCCCCCC[N+]1(C)CCCC1.O=S(=O)([N-]S(=O)(=O)C(F)(F)F)C(F)(F)F	0.61
CCC(=O)CC [pentan-3-one] + CCCCCCCCCC[N+]1(C)CCCC1.O=S(=O)([N-]S(=O)(=O)C(F)(F)F)C(F)(F)F	0.48
CC(C)OC(C)C [diisopropyl ether] + CCCCCCCCCC[N+]1(C)CCCC1.O=S(=O)([N-]S(=O)(=O)C(F)(F)F)C(F)(F)F	2.28
CCCCCCCCCCC [undecane] + CCCCCCCCCC[N+]1(C)CCCC1.O=S(=O)([N-]S(=O)(=O)C(F)(F)F)C(F)(F)F	11.2

Query compound follows.
**Query** Consider the compound CCC(C)=O [butanone] + CCCCCCCCCC[N+]1(C)CCCC1.O=S(=O)([N-]S(=O)(=O)C(F)(F)F)C(F)(F)F and give its measured activity coefficient.
**Result** 0.37

* * *

# Assay notes: activity coefficient (dimensionless); of the first substance listed, at infinite dilution; xn = mol fraction of the nth substance listed
# Condition details: 322.9 K; 101 kPa; Liquid; Chromatography; x1 = 0
Readout label: activity coefficient
In your answer, state the number alone without any accompanying words.

# annotated cases, reported activity coefficient shown
Compound	activity coefficient
CCCCCCCC [octane] + CCCCCC[N+]1(C)CCCC1.O=S(=O)([N-]S(=O)(=O)C(F)(F)F)C(F)(F)F	14.2
CCCCO [butan-1-ol] + CCCCCC[N+]1(C)CCCC1.O=S(=O)([N-]S(=O)(=O)C(F)(F)F)C(F)(F)F	2.28

Query compound follows.
**Query** Consider the compound CCCO [propan-1-ol] + CCCCCC[N+]1(C)CCCC1.O=S(=O)([N-]S(=O)(=O)C(F)(F)F)C(F)(F)F and give its measured activity coefficient.
**Result** 1.72

* * *

# Assay notes: activity coefficient (dimensionless); of the first substance listed, at infinite dilution; xn = mol fraction of the nth substance listed
# Condition details: 322.6 K; 101 kPa; Liquid; Chromatography; x1 = 0
We'd kindly ask you to apply these activity coefficient classes: lower level = under 1, middle level = from 1 up to 2, upper level = 2 and over

Study these solved cases before continuing.
Compound	Label
c1ccncc1 [pyridine] + CCCCCCCCCC[N+]1(C)CCCC1.O=S(=O)([N-]S(=O)(=O)C(F)(F)F)C(F)(F)F	lower level
CCO [ethanol] + CCCCCCCCCC[N+]1(C)CCCC1.O=S(=O)([N-]S(=O)(=O)C(F)(F)F)C(F)(F)F	middle level
Cc1ccccc1C [1,2-dimethylbenzene] + CCCCCCCCCC[N+]1(C)CCCC1.O=S(=O)([N-]S(=O)(=O)C(F)(F)F)C(F)(F)F	lower level

Note: attention shifts to another entry.
**Query** Please classify: CC(C)OC(C)C [diisopropyl ether] + CCCCCCCCCC[N+]1(C)CCCC1.O=S(=O)([N-]S(=O)(=O)C(F)(F)F)C(F)(F)F
**Result** upper level

* * *

# Assay notes: activity coefficient (dimensionless); of the first substance listed, at infinite dilution; xn = mol fraction of the nth substance listed
# Condition details: 322.6 K; 101 kPa; Liquid; Chromatography; x1 = 0
Listing of entries alongside the reported activity coefficient.
In your answer, state the number alone without any accompanying words.

Compound	activity coefficient
CCc1ccccc1 [ethylbenzene] + CCCCCCCCCC[N+]1(C)CCCC1.O=S(=O)([N-]S(=O)(=O)C(F)(F)F)C(F)(F)F	1.01

**Query** Consider the compound Cc1ccc(C)cc1 [1,4-dimethylbenzene] + CCCCCCCCCC[N+]1(C)CCCC1.O=S(=O)([N-]S(=O)(=O)C(F)(F)F)C(F)(F)F and give its measured activity coefficient.
**Result** 1

**Query** Continue with CC(C)O [propan-2-ol] + CCCCCCCCCC[N+]1(C)CCCC1.O=S(=O)([N-]S(=O)(=O)C(F)(F)F)C(F)(F)F
**Result** 1.52

**Query** Continue with CC1CCCC1 [methylcyclopentane] + CCCCCCCCCC[N+]1(C)CCCC1.O=S(=O)([N-]S(=O)(=O)C(F)(F)F)C(F)(F)F
**Result** 2.9

**Query** Continue with CCCCCC [hexane] + CCCCCCCCCC[N+]1(C)CCCC1.O=S(=O)([N-]S(=O)(=O)C(F)(F)F)C(F)(F)F
**Result** 3.97

**Query** Continue with CCCO [propan-1-ol] + CCCCCCCCCC[N+]1(C)CCCC1.O=S(=O)([N-]S(=O)(=O)C(F)(F)F)C(F)(F)F
**Result** 1.62

**Query** Continue with CCCCCCC [heptane] + CCCCCCCCCC[N+]1(C)CCCC1.O=S(=O)([N-]S(=O)(=O)C(F)(F)F)C(F)(F)F
**Result** 4.91

**Query** Continue with c1ccsc1 [thiophene] + CCCCCCCCCC[N+]1(C)CCCC1.O=S(=O)([N-]S(=O)(=O)C(F)(F)F)C(F)(F)F
**Result** 0.6

**Query** Continue with CC(C)CO [2-methyl-1-propanol] + CCCCCCCCCC[N+]1(C)CCCC1.O=S(=O)([N-]S(=O)(=O)C(F)(F)F)C(F)(F)F
**Result** 1.7
